Tested on: ES2
test details: cell viability relative to DMSO control (MTS) (fraction of DMSO control); higher = more viable cells / less growth inhibition
details: 10 µM; 48 h
Structures can show the parent of a compound that is named as a salt.
Reported cell viability maps to class as: zone 1 (below 0.8), zone 2 (0.8 to below 1), zone 3 (1 or more)

Some entries whose results are on file:
CC(=N)NCc1cccc(CN)c1 | zone 3
CC[C@]1(O)C[C@@H]2CN(CCc3c([nH]c4ccccc34)[C@@](C(=O)OC)(c3cc4c(cc3OC)N(C)[C@H]3[C@@](O)(C(=O)OC)[C@H](OC(C)=O)[C@]5(CC)C=CCN6CC[C@]43[C@@H]65)C2)C1 [Vinblastine sulfate] | zone 1

Problem: Could you place C/C=C/C=C\C=C/C(O)C(C)C(CCC(C)C1OC(=O)C=CC1C)OP(=O)(O)O (stereo unspecified) [Cytostatin] in its proper category? Many thanks.
Result: zone 1

Problem: For `Cc1ccc2nc(NCCN)c3ncc(C)n3c2c1` , which cell viability bin applies?
Result: zone 1

Problem: Into which bin does this compound go? CS(=O)(=O)c1ccc(C(=O)Nc2ccc(Cl)c(-c3ccccn3)c2)c(Cl)c1 [Vismodegib]
Result: zone 2

Problem: Lab note: which band did COC(=O)C1=C(C)NC(C)=C(C(=O)OC)C1c1ccccc1[N+](=O)[O-] [Nifedipine] land in?
Result: zone 2

Problem: Record NNCCc1ccccc1 [Phenelzine] — which class?
Result: zone 3

Problem: Which cell viability category applies to Cc1ccc(NC(=O)c2ccc(CN3CCN(C)CC3)cc2)cc1Nc1nccc(-c2cccnc2)n1 [imatinib mesylate] here?
Result: zone 2

Problem: Which of the defined bands does the recorded cell viability of CC(C)C[C@H](NC(=O)[C@@H](O)[C@H](N)Cc1ccccc1)C(=O)O [Bestatin] sit within?
Result: zone 2

Problem: Place this compound in its band: CCN(CC)CCNC(=O)c1c(C)[nH]c(/C=C2\C(=O)Nc3ccc(F)cc32)c1C [sunitinib malate]
Result: zone 1

Problem: Which class holds Cc1ccc(Nc2nccc(N(C)c3ccc4c(C)n(C)nc4c3)n2)cc1S(N)(=O)=O [pazopanib] ?
Result: zone 2

Problem: Categorize the following entry: Cn1c(=O)c2nc[nH]c2n(C)c1=O [Theophylline]
Result: zone 1
